protocol: Preliminary PK analysis, Phase I/II study of ruxolitinib with siremadlin in myelofibrosis patients
Format: in vivo, human
applied conditions: human, in vivo, oral, 20 mg
assay metric: half-life

Qu. # input molecule: "N#CC[C@H](C1CCCC1)n1cc(-c2ncnc3[nH]ccc23)cn1" ; wanted: its half-life
Ans. 3 to 4 h

Values from patent US20220331318A1
